- method: Mouse single dose pharmacokinetics
- Type: in vivo, C57BL/6 mice
- measurementSetup: male, C57BL/6, plasma, 0.5 mg/kg, IV, read-out: t½ (converted)
Catalogue of half-life readings, one per entry.
measurementLabel: half-life (h)

>>> df
                          chemicalstructure  measurementlabel  unit  datavalue
0  Cc1cc(CN2C(=O)CN([C@H]3CC[C@H](C)CC3)C(=O)C23CN(C(N)=O)C3)ccc1F         half-life     h       1.27
1  CC(C)N1CC(=O)N(Cc2ccc(Cl)c(F)c2)C2(CN(c3cccnn3)C2)C1=O         half-life     h       0.66
2  C[C@H]1CC[C@H](N2CC(=O)N(Cc3ccc(F)c(F)c3)C3(CN(C(N)=O)C3)C2=O)CC1         half-life     h       3.08
3  C[C@H]1CC[C@H](N2CC(=O)N(Cc3ccc(F)c(Cl)c3)C3(CN(C(N)=O)C3)C2=O)CC1         half-life     h        2.5
4  CC(C)N1CC(=O)N(Cc2ccc(C(F)(F)F)cc2)C2(CN(c3cccnn3)C2)C1=O         half-life     h       0.46
5  C[C@H]1CC[C@H](N2CC(=O)N(Cc3ccc(Cl)cc3)C3(CN(C(N)=O)C3)C2=O)CC1         half-life     h       1.18

----------
- testedTarget: CYP1A2 (Homo sapiens, UniProt P05177)
- Construct: Pooled human microsomes and selective CYP probe substrates were used; from tissue; host or cells: pooled human liver microsomes
- Sequence (P05177 1-516): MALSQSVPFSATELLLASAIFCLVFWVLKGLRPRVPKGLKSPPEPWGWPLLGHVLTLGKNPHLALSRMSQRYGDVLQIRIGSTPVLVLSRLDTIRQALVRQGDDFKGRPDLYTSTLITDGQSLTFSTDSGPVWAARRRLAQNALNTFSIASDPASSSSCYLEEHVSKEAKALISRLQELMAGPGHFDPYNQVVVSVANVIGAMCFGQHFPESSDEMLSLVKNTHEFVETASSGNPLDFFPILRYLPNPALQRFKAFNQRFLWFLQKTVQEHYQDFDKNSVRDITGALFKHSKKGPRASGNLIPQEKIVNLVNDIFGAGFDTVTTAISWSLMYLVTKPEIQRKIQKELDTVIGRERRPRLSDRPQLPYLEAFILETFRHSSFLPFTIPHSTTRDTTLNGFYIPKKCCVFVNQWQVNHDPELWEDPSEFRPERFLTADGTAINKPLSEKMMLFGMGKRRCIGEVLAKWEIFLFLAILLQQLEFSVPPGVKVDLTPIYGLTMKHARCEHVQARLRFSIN
- method: Time-dependent inhibition of CYP1A2 in human liver microsomes
- Assay type: in vitro ADME
- measurementSetup: CYP1A2, 50 μM, fold change
Documented (% Activity NADPH T0)/(% Activity NADPH T30) across a set of compounds
measurementLabel: (% Activity NADPH T0)/(% Activity NADPH T30)

>>> df
                                   compound  datavalue
0  C[C@H]1CC[C@H](N2CC(=O)N(Cc3ccc(F)c(F)c3)C3(CN(C(N)=O)C3)C2=O)CC1 [Compound 5]        1.1
1  C[C@H]1CC[C@H](N2CC(=O)N(Cc3ccc(F)c(F)c3)C3(CN(C=O)C3)C2=O)CC1 [Compound 4]        1.0
2  Cc1cc(CN2C(=O)CN([C@H]3CC[C@H](C)CC3)C(=O)C23CN(C(N)=O)C3)ccc1F [Compound 6]        1.0
3  CC(C)N1CC(=O)N(Cc2ccc(C(F)(F)F)cc2)C2(CN(c3cccnn3)C2)C1=O [Compound 13]        0.8
4  CC(C)N1CC(=O)N(Cc2ccc(Cl)c(F)c2)C2(CN(c3cccnn3)C2)C1=O [Compound 8]        0.9
5  C[C@H]1CC[C@H](N2CC(=O)N(Cc3ccc(F)c(Cl)c3)C3(CN(C(N)=O)C3)C2=O)CC1 [Compound 7]        0.8
6  C[C@H]1CC[C@H](N2CC(=O)N(Cc3ccc(Cl)cc3)C3(CN(C(N)=O)C3)C2=O)CC1 [Compound 18]        1.0
